Assign Potency to each entry below.
Test system: Zika virus NS2B-NS3 protease (linked)
Assay name: 384 well plate NINDS AMC confirmatory qHTS for Zika virus inhibitors (AID 1347163); further: potency means the concentration at half of the fitted maximal effect; nearly all actives have a fitted effect of over 50% in size
Test conditions: Recombinant NS2B-NS3 protease, Ac-VKTGKR-AMC fluorescence
Results filed as inconclusive are left out. Active and inactive are the calls of the source. The call rests on the fitted dose curve; in most records, active means well fitted inhibition curve with a large enough effect; inconclusive means small, poorly fitted or top-dose-only effect; inactive means no such curve, though single readings can be large or run the other way.

Need Potency of `O=C(O)C(=O)c1cn(Cc2ccccc2)c2ccc(-c3ccc(OC(F)(F)F)cc3)cc12` , thanks. 11.2 µM (active)

Could you do the same for O=c1oc2ccccc2c(O)c1C(CC(O)c1ccc(-c2ccc(Br)cc2)cc1)c1ccccc1 (stereo not given) , please? 31.6 µM (active)

# repeat for `Cc1cc(SCc2sc(-c3ccc(C(F)(F)F)c(F)c3)nc2C)ccc1OCC(=O)O` 39.8 µM (active)

Another compound: `N[C@@H](Cc1ccc(Oc2cc(I)c(O)c(I)c2)c(I)c1)C(=O)O` 50.1 µM (active)

Can you handle `CN(C)[C@@H]1C(=O)C(C(N)=O)=C(O)[C@@]2(O)C(=O)C3=C(O)c4c(O)cccc4[C@@](C)(O)[C@H]3C[C@@H]12` next? 224 µM (active)

---

Assay name: Cell Viability - LYMP2-024 (AID 988);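 further: cells exposed to compound for 24 hr at 37 °C; nearly all actives have a fitted effect of over 60% in size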; further: potency means the concentration at half of the fitted maximal effect
Test conditions: LYMP2-024 lymphoblastoid cell viability; series mostly up to 92.2 µM
Inconclusive results are not listed. Calls of active or inactive are those of the source. Calls come from the whole dose curve; as a rule, active = well fitted cell-killing curve with a large enough effect; inconclusive = small, poorly fitted or top-dose-only effect; inactive = flat fitted curve, though single readings scatter.
Reported metric: Potency

The examples below pair each entry with its known result.
Molecule	Potency
Oc1ccccc1-c1ccccc1	inactive
NCC(O)c1ccc(O)cc1 (stereo unspecified)	inactive
CNCC(O)c1ccc(O)cc1 (stereo unspecified)	inactive
N[C@@H](Cc1ccc(N(CCCl)CCCl)cc1)C(=O)O	20 µM (active)
Oc1cccc2cccnc12	7.94 µM (active)

Look up Potency for this molecule: `Oc1ccc(Cl)cc1Cc1ccccc1` inactive

---

Assay name: Quantitative High-Throughput drug screen in 47 multiple myeloma cell lines against the NCATS MIPE library collection: U266_ATCC cell viability assay (AID 1919864); further: nearly all actives have a fitted effect of over 35% in size
Test conditions: U266 myeloma viability, CellTiter-Glo ATP luminescence, 48 h; series mostly up to 45.8 µM
Inconclusive results are not listed. The source made the active and inactive calls. Calls come from the whole dose curve; as a rule, active = well fitted cell-killing curve with a large enough effect; inconclusive = small, poorly fitted or top-dose-only effect, or effect the other way; inactive = no such curve, though single readings can be large or run the other way.
API: response.call in active, inactive

What did the test return for COC1(CS(=O)c2ccccc2)CCN(CCc2c[nH]c3ccc(F)cc23)CC1 (stereo not drawn) ? inactive

Another compound to check: `CN(C)CCc1ccc(O)cc1` inactive

Next: `C[C@@H]1O[C@@H](O[C@H]2C[C@@H](O)[C@]3(CO)[C@H]4[C@H](O)C[C@]5(C)[C@@H](C6=CC(=O)OC6)CC[C@]5(O)[C@@H]4CC[C@]3(O)C2)[C@H](O)[C@H](O)[C@H]1O` active

What would you report for `O=c1[nH]c2ccccc2n1CCCN1CCC(n2c(=O)[nH]c3cc(Cl)ccc32)CC1` ? inactive

Try `NCC1(CC(=O)O)CCCCC1` next. inactive

Param item: `CNC(=O)c1ccc(N2C(=S)N(c3ccc(C#N)c(C(F)(F)F)c3)C(=O)C23CCC3)cc1F` active

Repeat for the following compound: `Cc1sc2c(c1C)C(c1ccc(Cl)cc1)=N[C@@H](CC(=O)OC(C)(C)C)c1nnc(C)n1-2` active

And the next one, `CN(C)[C@@H]1C(=O)C(C(N)=O)=C(O)[C@@]2(O)C(=O)C3=C(O)c4c(O)cccc4[C@@](C)(O)[C@H]3C[C@@H]12` ? inactive

Consider next the compound CC(C)CC(N(C)C)C1(c2ccc(Cl)cc2)CCC1 (stereo not drawn) in the same way. active

Likewise for CC(O)(CS(=O)(=O)c1ccc(F)cc1)C(=O)Nc1ccc(C#N)c(C(F)(F)F)c1 (stereo not drawn) ? active

Entry CNC(=O)N1N=C(c2ccc(N)cc2)c2cc3c(cc2CC1C)OCO3 (stereo not drawn) please active

Another: CCCC(C)(COC(N)=O)COC(=O)NC(C)C (stereo not drawn) inactive

And the next one, C[C@@H]1[C@@H](CC(C[C@H]2O[C@@H]3O[C@]4(C)CC[C@@H]5[C@H](C)CC[C@@H]([C@H]2C)[C@@]35OO4)C[S+](=O)([O-])c2ccc(COC(=O)N(C)C)cc2)O[C@@H]2O[C@]3(C)CC[C@H]4[C@H](C)CC[C@@H]1[C@@]24OO3 (stereo partly drawn) ? active

---

Assay name: qHTS assay for small molecule activators of the p53 signaling pathway (AID 651743); further: % of control where 0% means no effect
Test conditions: HCT-116 p53RE-bla, beta-lactamase FRET ratio, 16 h; stronger effect = higher value
Results filed as inconclusive are left out.
Give activation for every item shown.
Write it as a number; the unit % goes unstated.

Which activation reading was recorded for the compound `C[C@]12CCC(=O)C(O)=C1CC[C@@H]1[C@@H]2CC[C@]2(C)C(=O)CC[C@@H]12` ? -6.6

Follow-up item: `CC(C)(C)CC(C)(C)c1ccc(O)cc1` 1.12

Then what about the compound `Nc1ccncc1` ? 2.37

Similarly, NCC(O)c1ccc(O)cc1 (centres undefined) ? -5.43

---

Target: Peroxisome proliferator-activated receptor gamma (Homo sapiens)
Assay name: qHTS assay for small molecule antagonists of peroxisome proliferator-activated receptor gamma signaling (AID 588537)
Test conditions: HEK293 PPARg-UAS-bla, beta-lactamase ratio, antagonist mode; series mostly up to 76.8 µM
Records with an inconclusive call do not appear. Activity calls are given as the source filed them. Calls follow the shape of the dose curve; as a rule, active = well fitted inhibition curve with a large enough effect in the signal ratio, with a control signal flat (not every such curve was filed as active); inconclusive = small, poorly fitted or top-dose-only effect, or effect the other way, or a change in a side signal; inactive = flat fitted curve, though single readings scatter; the % refers to the signal ratio.
Thanks in advance; please answer with one of these: label 1 = active, label 0 = inactive

Given `C[C@]12CCC(=O)C(O)=C1CC[C@@H]1[C@@H]2CC[C@]2(C)C(=O)CC[C@@H]12` , state the outcome it received in this test. label 0

Okay, and `CCOP(=S)(OCC)Oc1cc(C)nc(C(C)C)n1` ? label 0

Repeat for the following compound: `C=C(C)[C@H]1Cc2c(ccc3c2O[C@@H]2COc4cc(OC)c(OC)cc4[C@@H]2C3=O)O1` label 1

Same for `Oc1cc(Cl)ccc1Oc1ccc(Cl)cc1Cl` label 0

Same again, this time with `OCCOc1ccccc1` label 0

Now the same for CCCC(C)(COC(N)=O)COC(=O)NC(C)C (stereo unspecified) label 0

---

Test conditions: Ebola virus entry cell assay, ratio channel
Active and inactive are the calls of the source.
In this exercise, the only acceptable responses are active, inactive

I'd appreciate the recorded outcome for `NC12CC3CC(CC(C3)C1)C2` from this test. inactive

Try this molecule next: `CN(C)[C@@H]1C(=O)C(C(N)=O)=C(O)[C@@]2(O)C(=O)C3=C(O)c4c(O)ccc(Cl)c4[C@@H](O)[C@H]3C[C@@H]12` inactive

Then this molecule: CCC(COC(=O)c1cc(OC)c(OC)c(OC)c1)(c1ccccc1)N(C)C (stereo not given) inactive

Try `N=c1nc(N2CCCCC2)cc(N)n1O` next. inactive

Can you check `CNS(=O)(=O)CCc1ccc2[nH]cc(C3CCN(C)CC3)c2c1` next? inactive

What do you have for `CCc1nn(CCCN2CCN(c3cccc(Cl)c3)CC2)c(=O)n1CCOc1ccccc1` ? active

`C=C1CC[C@@]2(O)[C@H]3Cc4ccc(O)c5c4[C@@]2(CCN3CC2CC2)[C@H]1O5` ? inactive

Record: `CC(C)(C)C(=O)OCOP(=O)(COCCn1cnc2c(N)ncnc21)OCOC(=O)C(C)(C)C` inactive

How about `CC[C@@H](CO)NC(=O)[C@@H]1C=C2c3cccc4c3c(cn4C)C[C@H]2N(C)C1` ? inactive

Would you kindly repeat that for CCN(CCO)CCCC(C)Nc1ccnc2cc(Cl)ccc12 (stereo not given) ? active

---

Test system: C2A
Assay name: qHTS profiling for inhibitors of Plasmodium falciparum proliferation (AID 504749); further: nearly all actives have a fitted effect of over 60% in size
Test conditions: P. falciparum in erythrocytes, SYBR Green DNA, 72 h; series mostly up to 28.7 µM
Records with an inconclusive call do not appear. Activity calls are given as the source filed them. Calls come from the whole dose curve; as a rule, active = well fitted inhibition curve with a large enough effect; inconclusive = small, poorly fitted or top-dose-only effect; inactive = flat fitted curve, though single readings scatter.
Answer with one of the outcomes 1.0 (active), 0.0 (inactive)

Assay outcome for CC(C)CC(N(C)C)C1(c2ccc(Cl)cc2)CCC1 (stereo unspecified) : what was it? 0.0

Query NCC(CC(=O)O)c1ccc(Cl)cc1 (stereo unspecified) next 0.0

Further, for `Fc1ccc(C(OCCN2CCN(CCCc3ccccc3)CC2)c2ccc(F)cc2)cc1` ? 1.0

Repeat with `CN1C[C@H](CNC(=O)OCc2ccccc2)C[C@@H]2c3cccc4c3c(cn4C)C[C@H]21` 1.0

Moving on to `OCCOc1ccccc1` 0.0

Query `CCN(CC)CCOC(=O)C(O)(c1ccccc1)c1ccccc1` next 0.0

---

Assay name: S16 Schwann cell viability assay (CellTiter-Glo assay) (AID 624031);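 further: native untransfected S16 rat Schwann cells; cellular ATP luminescence as a viability measure; plate controls were DMSO-treated cells for no effect and cell-free wells for full effect; nearly all actives have a fitted effect of over 70% in size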
Test conditions: S16 rat Schwann cells viability, 24 h; series mostly up to 57.5 µM
Inconclusive results are not listed. The source made the active and inactive calls. Calls come from the whole dose curve; as a rule, active = well fitted cell-killing curve with a large enough effect; inconclusive = small, poorly fitted or top-dose-only effect, or effect the other way; inactive = flat fitted curve, though single readings scatter.
Reported metric: outcome

Cc1cccc(C)c1NC1=NCCCS1 inactive
FC(F)(F)c1cccc(C2=CCN(CCc3ccc4ccccc4c3)CC2)c1 inactive
NCCc1cc(O)c(O)cc1O inactive

---

Assay name: Immunotoxin (SS1P) sensitization/mitigation study. Vehicle arm (DMEM) (AID 1159513)
Test conditions: cell viability with vehicle (DMEM); series mostly up to 46.1 µM
Calls of active or inactive are those of the source. The rule behind the calls is not given here.
Hi! Could you answer with just one of these? yes = active, no = inactive

Name the outcome recorded for `CC(C)C[C@H](NC(=O)[C@H](Cc1ccccc1)NC(=O)c1cnccn1)B(O)O` in the assay. yes

Another compound to check: COC1(CS(=O)c2ccccc2)CCN(CCc2c[nH]c3ccc(F)cc23)CC1 (centres undefined) no

Same again, this time with CC(c1cc2ccccc2s1)N(O)C(N)=O (centres undefined) no

Another compound to check: C[C@@H]1[C@@H](CC(C[C@H]2O[C@@H]3O[C@]4(C)CC[C@@H]5[C@H](C)CC[C@@H]([C@H]2C)[C@@]35OO4)C[S+](=O)([O-])c2ccc(COC(=O)N(C)C)cc2)O[C@@H]2O[C@]3(C)CC[C@H]4[C@H](C)CC[C@@H]1[C@@]24OO3 (some centres undefined) yes
